Biological target: human melanocortin-1 receptor hMCR-1 expressed by the human melanoma cell line HBL (human, UniProt Q01726 1-317)
Sequence (Q01726 whole entry): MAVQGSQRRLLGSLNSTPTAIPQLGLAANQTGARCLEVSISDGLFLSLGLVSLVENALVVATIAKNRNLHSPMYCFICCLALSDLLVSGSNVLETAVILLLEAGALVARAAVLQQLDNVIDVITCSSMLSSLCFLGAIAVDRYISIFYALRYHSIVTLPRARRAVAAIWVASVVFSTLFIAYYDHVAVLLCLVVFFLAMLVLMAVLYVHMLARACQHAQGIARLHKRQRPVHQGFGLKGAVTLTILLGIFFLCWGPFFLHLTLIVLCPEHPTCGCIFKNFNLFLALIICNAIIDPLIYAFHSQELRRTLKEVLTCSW
Assay: cell-based or functional assay
Bridge positions count the residues as written; N and C are the ends. Square brackets hold non-standard residues; d marks the D form. Nle = CCCC[C@H](N)C(=O)O; Dab = NCC[C@H](N)C(=O)O; Dap = NC[C@H](N)C(=O)O
Items are presented alongside their recorded MC-1 Emax (average; cAMP HBL).
observation-type: MC-1 Emax (average; cAMP HBL) (%)

binder="Ac-[Nle]EH[dF]R[Dab]K-NH2 (lactam 2-6; SMILES CCCC[C@H](NC(C)=O)C(=O)N[C@H]1CCC(=O)NCC[C@@H](C(=O)N[C@@H](CCCCN)C(N)=O)NC(=O)[C@H](CCCNC(=N)N)NC(=O)[C@@H](Cc2ccccc2)NC(=O)[C@H](Cc2c[nH]cn2)NC1=O) [Ac-Nle-cyclo(Glu-His-D-Phe-Arg-Dab)-Lys-NH2]" observation_type="MC-1 Emax (average; cAMP HBL)" test_value=91
binder="Ac-[Nle]EH[dF]R[Dab]W-NH2 (lactam 2-6) [Ac-Nle-cyclo(Glu-His-D-Phe-Arg-Dab)-Trp-NH2]" observation_type="MC-1 Emax (average; cAMP HBL)" test_value=95
binder="Ac-[Nle]EK[dF]R[Dab]W-NH2 (lactam 2-6) [Ac-Nle-cyclo(Glu-Lys-D-Phe-Arg-Dab)-Trp-NH2]" observation_type="MC-1 Emax (average; cAMP HBL)" test_value=108
binder="Ac-[Nle]EH[dF]R[Dap]W-NH2 (lactam 2-6) [Ac-Nle-cyclo(Glu-His-D-Phe-Arg-Dap)-Trp-NH2]" observation_type="MC-1 Emax (average; cAMP HBL)" test_value=91
binder="Ac-[Nle]EH[dF]R[Dab][dW]-NH2 (lactam 2-6) [Ac-Nle-cyclo(Glu-His-D-Phe-Arg-Dab)-D-Trp-NH2]" observation_type="MC-1 Emax (average; cAMP HBL)" test_value=93
